- protocol.notes: Pharmacokinetics in rat plasma after intragastric administration, normoxia (UPLC-MS/MS)
- Format: in vivo, Sprague-Dawley rats
- setup.conditions: male, Sprague-Dawley, rat, plasma, po, 80 mg/kg, PF (80 mg/kg) combined with AF (14 mg/kg), intragastric, mean ± SD, n = 6
readout.type: half-life (h)
Response body: numeric value in h, unit text excluded.

**Q:** Give its half-life value. Item: `C[C@@]12C[C@@]3(O)O[C@@H](O1)[C@]1(COC(=O)c4ccccc4)[C@H]3C[C@@]12O[C@@H]1O[C@H](CO)[C@@H](O)[C@H](O)[C@H]1O`
**A:** 1.63

====

- protocol.notes: Pharmacokinetics in rat plasma after intragastric administration, normoxia (UPLC-MS/MS)
- Type: in vivo, Sprague-Dawley rats
- setup.conditions: male, Sprague-Dawley, rat, plasma, po, 80 mg/kg, PF in TPG (TPG dose with PF 80 mg/kg), intragastric, mean ± SD, n = 6, read-out: AUC(0→24 h) (converted)
readout.type: AUC(0-t) (ng·h/mL)
Answer format: numeric, ng·h/mL implied, no suffix.

**Q:** Request the reported AUC(0-t) associated with `C[C@@]12C[C@@]3(O)O[C@@H](O1)[C@]1(COC(=O)c4ccccc4)[C@H]3C[C@@]12O[C@@H]1O[C@H](CO)[C@@H](O)[C@H](O)[C@H]1O`
**A:** 902

====

- protocol.notes: Pharmacokinetics in rat plasma after intragastric administration, normoxia (UPLC-MS/MS)
- Type: in vivo, Sprague-Dawley rats
- setup.conditions: male, Sprague-Dawley, rat, plasma, po, 80 mg/kg, PF (80 mg/kg) combined with AF (14 mg/kg), intragastric, mean ± SD, n = 6
readout.type: Tmax
Your answer should be a number followed by the unit of measure.

**Q:** Any idea what its Tmax is? The compound is `C[C@@]12C[C@@]3(O)O[C@@H](O1)[C@]1(COC(=O)c4ccccc4)[C@H]3C[C@@]12O[C@@H]1O[C@H](CO)[C@@H](O)[C@H](O)[C@H]1O`
**A:** 41.7 min

====

- protocol.notes: Pharmacokinetics in rat plasma after intragastric administration, normoxia (UPLC-MS/MS)
- Assay type: in vivo, Sprague-Dawley rats
- setup.conditions: male, Sprague-Dawley, rat, plasma, po, 80 mg/kg, PF in TPG (TPG dose with PF 80 mg/kg), intragastric, mean ± SD, n = 6
readout.type: half-life
Remember to quote the unit after the number.

**Q:** Record request: half-life value, item `C[C@@]12C[C@@]3(O)O[C@@H](O1)[C@]1(COC(=O)c4ccccc4)[C@H]3C[C@@]12O[C@@H]1O[C@H](CO)[C@@H](O)[C@H](O)[C@H]1O`
**A:** 3.91 h

====

- protocol.notes: Pharmacokinetics in rat plasma after intragastric administration, hypoxia (9.0% O2)
- Assay type: in vivo, Sprague-Dawley rats
- setup.conditions: male, Sprague-Dawley, po, AF 14 mg/kg single intragastric, mean ± SD, n = 6, read-out: MRT(0→24 h) (converted)
readout.type: MRT last (h)
All answers are understood in h, so give the number only.

**Q:** Given the compound CC12CC(O)C3CC1(OC1OC(CO)C(O)C(O)C1O)C3(COC(=O)c1ccccc1)C(=O)O2 (stereo not shown) , what is its reported MRT last?
**A:** 2.16
